Each recorded value in this set is attributed to patent US20240208994A1.

- Assay system: Human plasma kallikrein (Homo sapiens, UniProt P03952)
- Construct: yields a heavy chain (371 amino acids) and a light chain (248 amino acids)
- Sequence (P03952 391-638 limits assumed): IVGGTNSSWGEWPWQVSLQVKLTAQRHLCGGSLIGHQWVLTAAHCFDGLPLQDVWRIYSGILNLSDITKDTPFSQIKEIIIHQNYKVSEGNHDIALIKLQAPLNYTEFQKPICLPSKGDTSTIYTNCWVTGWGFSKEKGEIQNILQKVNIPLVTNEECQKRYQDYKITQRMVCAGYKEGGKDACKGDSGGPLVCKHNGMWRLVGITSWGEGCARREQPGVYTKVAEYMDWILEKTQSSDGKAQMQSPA
- Sequence (P03952 20-390 partner limits assumed): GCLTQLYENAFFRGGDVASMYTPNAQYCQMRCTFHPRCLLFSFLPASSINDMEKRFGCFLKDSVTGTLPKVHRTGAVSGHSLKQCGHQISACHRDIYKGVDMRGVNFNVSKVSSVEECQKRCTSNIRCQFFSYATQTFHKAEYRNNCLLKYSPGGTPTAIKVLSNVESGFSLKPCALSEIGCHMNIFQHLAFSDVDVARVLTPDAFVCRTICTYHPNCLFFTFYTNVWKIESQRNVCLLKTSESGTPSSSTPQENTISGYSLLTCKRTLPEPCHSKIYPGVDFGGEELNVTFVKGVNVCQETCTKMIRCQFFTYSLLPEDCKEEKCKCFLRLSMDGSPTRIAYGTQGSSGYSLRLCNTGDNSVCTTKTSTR
- Protocol summary: Plasma Kallikrein Assay
- Details: purified Human plasma kallikrein 0.5 nM, substrate Acetyl-K-P-R-AFC, HEPES pH 7.4, fluorescence 405 Ex/510 Em; read-out: PKal IC50
Endpoint label: pIC50
One number for each entry, as −log10 of the molar value.

[
  {
    "Compound": "Nc1c(Cl)c(-c2ncccn2)nn1CC(=O)N1CCC[C@@]2(C1)OC(=O)Nc1ccc(Cl)c(F)c12",
    "pIC50": 7.61
  },
  {
    "Compound": "Nc1cc(-c2ncc(F)cc2F)nn1CC(=O)N1CC[C@@]2(C1)OC(=O)Nc1ccc(Cl)c(F)c12",
    "pIC50": 7.60
  },
  {
    "Compound": "Nc1cc(-c2cccnn2)nn1CC(=O)N1CC[C@@]2(C1)OC(=O)Nc1ccc(Cl)c(F)c12",
    "pIC50": 7.90
  }
]

// for each compound below, give its pIC50
1. Nc1cc(-c2ccco2)nn1CC(=O)N1CC[C@@]2(C1)OC(=O)Nc1ccc(Cl)c(F)c12
2. Nc1c2c(nn1CC(=O)N1CCC[C@@]3(C1)OC(=O)Nc1ccc(Cl)c(F)c13)-c1ccccc1C2
3. COc1cccc(-c2cc(N)n(CC(=O)N3CC[C@@]4(C3)OC(=O)Nc3ccc(Cl)c(F)c34)n2)c1
4. Nc1cc(-c2ccccc2)nn1CC(=O)N1CC[C@@]2(C1)OC(=O)Nc1ccc(Cl)c(F)c12
5. CC1(c2cc(N)n(CC(=O)N3CC[C@@]4(C3)OC(=O)Nc3ccc(Cl)c(F)c34)n2)CC1

[7.79, 8.62, 7.93, 7.81, 7.42]

// for each compound below, give its pIC50
1. Nc1cc(-c2ncc(F)cc2F)nn1CC(=O)N1CCC[C@@]2(C1)OC(=O)Nc1ccc(Cl)c(F)c12
2. Nc1cc(C2C3COCC32)nn1CC(=O)N1CC[C@@]2(C1)OC(=O)Nc1ccc(Cl)c(F)c12 (stereo partly drawn)
3. Nc1cc(C2CC2)nn1CC(=O)N1CC[C@@]2(C1)OC(=O)Nc1ccc(Cl)c(F)c12

1. 8.24
2. 7.57
3. 7.56

// for each compound below, give its pIC50
1. Nc1cc(C2CC(F)(F)C2)nn1CC(=O)N1CC[C@@]2(C1)OC(=O)Nc1ccc(Cl)c(F)c12
2. Cc1ccccc1-c1cc(N)n(CC(=O)N2CC[C@@]3(C2)OC(=O)Nc2ccc(Cl)c(F)c23)n1
3. Nc1cc(-c2ncccc2F)nn1CC(=O)N1CCC[C@@]2(C1)OC(=O)Nc1ccc(Cl)c(F)c12
4. Nc1cc(-c2c(F)cc(F)cc2F)nn1CC(=O)N1CC[C@@]2(C1)OC(=O)Nc1ccc(Cl)c(F)c12

7.49
8.29
8.08
8.43

----------
The following molecules each carry a recorded IC50 for human factor XIa (Homo sapiens, UniProt P03951).
Write the numeric value and append its unit.

Some molecules with known IC50 results, for comparison:
[
  {
    "Molecule": "Nc1cc(C2CCOCC2)nn1CC(=O)N1CC[C@@]2(C1)OC(=O)Nc1ccc(Cl)c(F)c12 [Example 5]",
    "Endpoint label": "IC50",
    "Result": "685 nM"
  },
  {
    "Molecule": "Nc1c(Cl)c(-c2ncc(F)cc2F)nn1CC(=O)N1CCC[C@@]2(C1)OC(=O)Nc1ccc(Cl)c(F)c12 [Example 33]",
    "Endpoint label": "IC50",
    "Result": "187 nM"
  },
  {
    "Molecule": "Nc1c2c(nn1CC(=O)N1CCC[C@@]3(C1)OC(=O)Nc1ccc(Cl)c(F)c13)-c1ccccc1C2 [Example 18]",
    "Endpoint label": "IC50",
    "Result": "88 nM"
  },
  {
    "Molecule": "Nc1cc(-c2ccccc2Br)nn1CC(=O)N1CC[C@@]2(C1)OC(=O)Nc1ccc(Cl)c(F)c12 [Example 57]",
    "Endpoint label": "IC50",
    "Result": "190 nM"
  },
  {
    "Molecule": "N#Cc1ccc(-c2cc(N)n(CC(=O)N3CC[C@@]4(C3)OC(=O)Nc3ccc(Cl)c(F)c34)n2)cc1 [Example 63]",
    "Endpoint label": "IC50",
    "Result": "613 nM"
  }
]

// for each molecule below, give its IC50
1. Nc1cc(-c2ccccc2)nn1CC(=O)N1CCC[C@@]2(C1)OC(=O)Nc1ccc(Cl)c(F)c12 [Example 23]
2. Nc1cc(-c2ccc3c(c2)OCO3)nn1CC(=O)N1CC[C@@]2(C1)OC(=O)Nc1ccc(Cl)c(F)c12 [Example 2]

1790 nM
653 nM
